target: T1, human IL-17A (human, UniProt Q16552 24-155); assay: ELISA, captured antibody, serially diluted biotin-IL-17 (Example 1.5.1)
T1 construct: Biotinylated in the ELISA; also called hIL-17; Hu IL-17A
T1 sequence (Q16552 24-155 limits assumed): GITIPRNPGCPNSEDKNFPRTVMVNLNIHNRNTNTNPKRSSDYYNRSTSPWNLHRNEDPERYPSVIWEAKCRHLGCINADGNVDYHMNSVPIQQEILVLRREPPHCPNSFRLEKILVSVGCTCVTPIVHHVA
outcome measure: pEC50
# log scale: pEC50 equals minus log10 of the concentration in mol/L

- IL17-B6-16 (antibody, V domains shown, also called pJP247 B6.1 #16VH / pJP248 B6.1 #16Vk) VH: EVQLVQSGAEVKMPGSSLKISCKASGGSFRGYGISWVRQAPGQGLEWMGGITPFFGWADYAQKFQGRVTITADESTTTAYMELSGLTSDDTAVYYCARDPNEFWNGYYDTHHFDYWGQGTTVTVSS VL: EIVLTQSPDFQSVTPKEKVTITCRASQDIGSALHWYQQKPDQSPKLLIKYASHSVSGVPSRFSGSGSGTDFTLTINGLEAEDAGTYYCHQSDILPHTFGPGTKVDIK: 9.80
- IL17-G9-6 (antibody, V domains shown) VH: EVQLLESGGGVVQPGRSLRLSCAASGFIFSDYGMHWVRQAPGKGLEWVAVISYDGSNKYYADSVKGRFTISRDNSKNTLYLEMNSLRPEDTAVYYCAKVGASGDYYYSYGLDVWGQGTTVTVSS VL: QSVLTQPPSASGTPGQTVSISCSGRQSNIGNHYVDWYQQVPGAAPKLLIYGDVIRPSGVPDRFSGSQSGTSASLAISGLQSEDEADYYCATWDDWLAGYVFGSGTKVTVLG: 9.92
- IL17-G9-5 (antibody, V domains shown) VH: EVQLLESGGGVVQPGRSLRLSCAASGFIFRNYGMHWVRQAPGKGLEWVAVIAYDGSRQYYSDSVKGRFTISRDNSKNTLYLEMNSLRPEDTAVYYCAKVGASGDYYYSYGLDLWGQGTTVTVSS VL: QSVLTQPPSASGTPGQTVSISCSGRQSNIGRHYVDWYQQVPGAAPKLLMYYDSIRPSGVPDRFSGSQSGTSASLAISGLQSEDEADYYCGMWDDSLAGYVFGSGTKVTVLG: 9.92
- IL17-G9-M2 (antibody, V domains shown) VH: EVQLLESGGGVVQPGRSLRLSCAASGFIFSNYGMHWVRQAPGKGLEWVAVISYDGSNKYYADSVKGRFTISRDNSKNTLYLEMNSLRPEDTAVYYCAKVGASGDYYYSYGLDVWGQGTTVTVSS VL: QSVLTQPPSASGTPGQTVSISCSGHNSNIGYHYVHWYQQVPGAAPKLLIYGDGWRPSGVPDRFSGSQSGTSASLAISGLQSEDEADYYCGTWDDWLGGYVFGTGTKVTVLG: 10.10
- IL17-B6-5 (antibody, V domains shown, also called pJP243 B6.1 #5VH / pJP244 B6.1 #5VK) VH: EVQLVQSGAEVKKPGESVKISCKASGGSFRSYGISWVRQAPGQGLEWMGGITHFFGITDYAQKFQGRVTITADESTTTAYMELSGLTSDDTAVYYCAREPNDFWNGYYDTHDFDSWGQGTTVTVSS VL: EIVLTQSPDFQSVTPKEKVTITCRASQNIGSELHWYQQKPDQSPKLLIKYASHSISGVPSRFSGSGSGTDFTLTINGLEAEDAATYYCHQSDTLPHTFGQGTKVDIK: 9.66

Prompt: Reported pEC50 for IL17-B6-11 (antibody, V domains shown) VH: EVQLVQSGAEVKKPGSSVKVSCKASGGSFLSYGFSWVRQAPGQGLEWMGGITPFFGFADYAQKFQGRVTITADESTTTAYMELSGLTSDDTAVYYCAREPNDFWNGYYTTHHFDYWGQGTTVTVSS VL: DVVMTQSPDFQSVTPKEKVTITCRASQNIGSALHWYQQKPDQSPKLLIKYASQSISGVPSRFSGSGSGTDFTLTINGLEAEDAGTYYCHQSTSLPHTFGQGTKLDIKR : what is it?
Completion: 10.24

Prompt: Look at this binder and give its reported pEC50. IL17-TN-L7-G9 (antibody, V domains shown, Fully human monoclonal antibody from mRNA display) VH: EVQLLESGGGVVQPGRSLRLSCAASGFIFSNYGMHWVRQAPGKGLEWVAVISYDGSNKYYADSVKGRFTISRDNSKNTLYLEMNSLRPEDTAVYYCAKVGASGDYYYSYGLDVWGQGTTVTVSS VL: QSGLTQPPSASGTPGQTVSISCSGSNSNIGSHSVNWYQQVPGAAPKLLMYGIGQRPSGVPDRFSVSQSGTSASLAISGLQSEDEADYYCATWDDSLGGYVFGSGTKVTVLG
Completion: 9.78
